- assayed_system: Neutrophil cytosol factor 1 (Homo sapiens) (UniProt P14598)
- Sequence (P14598 whole entry, looked up): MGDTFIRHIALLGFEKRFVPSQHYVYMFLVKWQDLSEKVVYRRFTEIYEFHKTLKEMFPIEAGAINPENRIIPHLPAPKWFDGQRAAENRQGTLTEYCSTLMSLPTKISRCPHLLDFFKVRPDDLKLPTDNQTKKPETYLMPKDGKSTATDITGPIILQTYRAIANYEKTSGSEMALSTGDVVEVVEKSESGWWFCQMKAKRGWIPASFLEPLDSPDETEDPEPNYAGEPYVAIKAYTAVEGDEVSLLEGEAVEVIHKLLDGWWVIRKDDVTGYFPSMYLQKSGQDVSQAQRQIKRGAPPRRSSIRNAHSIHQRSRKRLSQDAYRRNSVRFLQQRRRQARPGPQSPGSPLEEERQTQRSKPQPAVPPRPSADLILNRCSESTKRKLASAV
- protocol_summary: blockers of p47phox binding to p22phox – biochemical, uHTS, NADPH oxidase regulatory subunit, primary screen (AID 1274);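 also: 0% = p47phox with labelled peptide and 100% = labelled peptide alone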
- applied_conditions: p47phox/p22phox peptide binding, fluorescence polarization, 2 h; at 24.7 µM; hits give high values
The whole screen tested about 220,000 compounds, of which about 1,100 (0.5%) were called active. This excerpt belongs to a sample that is enriched for actives.
readout_kind: inhibition (%)
Only the number, expressed in %, is required.

Query: Please tell me the measured inhibition for S=c1[nH]nc(NCCc2ccccc2)s1 ; system: Neutrophil cytosol factor 1 (Homo sapiens) (UniProt P14598).
Response: 35.4

Query: Please tell me the measured inhibition for COc1ccc(-c2noc(-c3cccc(OC)c3OC)n2)cc1OC ; system: Neutrophil cytosol factor 1 (Homo sapiens) (UniProt P14598).
Response: -9.37

Query: Please tell me the measured inhibition for O=C(Nc1ccc(S(=O)(=O)N2CCOCC2)cc1)c1ccc2ncsc2c1 ; system: Neutrophil cytosol factor 1 (Homo sapiens) (UniProt P14598).
Response: -9.71

Query: Please tell me the measured inhibition for COc1ccc(C)cc1NC(=O)c1ccc(-c2ccc(C(C)=O)cc2)o1 ; system: Neutrophil cytosol factor 1 (Homo sapiens) (UniProt P14598).
Response: -8.08

Query: Please tell me the measured inhibition for Cc1nc(C)c(-c2csc(NCCc3ccccc3)n2)s1 ; system: Neutrophil cytosol factor 1 (Homo sapiens) (UniProt P14598).
Response: -1.49

Query: Please tell me the measured inhibition for CCN(CC)N=Nc1cccc(NC(C)=O)c1 ; system: Neutrophil cytosol factor 1 (Homo sapiens) (UniProt P14598).
Response: 2.47

---

- assayed_system: Neutrophil cytosol factor 1 (Homo sapiens)
- protocol_summary: blockers of p47phox binding to p22phox – biochemical, uHTS, NADPH oxidase regulatory subunit, primary screen (AID 1274);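 also: 0% = p47phox with labelled peptide and 100% = labelled peptide alone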
- applied_conditions: p47phox/p22phox peptide binding, fluorescence polarization, 2 h; at 24.7 µM; hits give high values
The whole screen tested about 220,000 compounds, of which about 1,100 (0.5%) were called active. This is one part of a sample in which actives are shown more often than they occur.
Would you kindly list inhibition for each of these compounds?
Only the number, expressed in %, is required.

Query: Return the recorded inhibition value; entry: Cc1noc(C)c1-c1nc(CSc2ccc(Cl)cc2)no1
Response: -18.6

Query: Return the recorded inhibition value; entry: Cc1ccnc(N2CCC(C(=O)NC3CCCCCC3)CC2)n1
Response: -2.85

Query: Return the recorded inhibition value; entry: COc1ccc2oc(-c3cccc(NC(=O)CSc4ccc(Cl)cc4)c3)nc2c1
Response: 152

Query: Return the recorded inhibition value; entry: CCCN(c1ccc(C)cc1)c1nc(=O)c2cccnc2s1
Response: 3.57

Query: Return the recorded inhibition value; entry: COc1ccc(-c2ccnc(SCC(=O)N3CCOCC3)n2)cc1
Response: -7.88

Query: Return the recorded inhibition value; entry: Cc1cccc(NC(=O)CSc2nnc(CCNC(=O)OC(C)(C)C)o2)c1C
Response: -4.83

Query: Return the recorded inhibition value; entry: COc1cccc2c1OCC(CN1CCN(C3CCCCC3)C(CCO)C1)=C2 (stereo not drawn)
Response: -0.19

Query: Return the recorded inhibition value; entry: CC1CCC(NC(=O)c2ccc(N3CCCC3=O)cc2)CC1 (stereo not drawn)
Response: -4.19

Query: Return the recorded inhibition value; entry: NC(N)=N/N=C/c1ccc(OCc2ccc(Cl)cc2Cl)cc1
Response: 103

Query: Return the recorded inhibition value; entry: COc1cc(C(F)(F)F)nc2c(Br)c(C(C)(C)C)nn12
Response: 7.7

Query: Return the recorded inhibition value; entry: CC(=O)OCc1cc(=O)n(C)c(=O)n1C
Response: 38.7

Query: Return the recorded inhibition value; entry: Cc1c(C(=O)OC(C)C)sc(NC(=O)c2cccnc2)c1C#N
Response: -54.3

Query: Return the recorded inhibition value; entry: O=C(NN1C(=O)C2CCCCC2C1=O)c1ccco1 (stereo not drawn)
Response: 8.97

Query: Return the recorded inhibition value; entry: COc1ccc(NC(=O)COC(=O)c2ccncc2)c(OC)c1
Response: -5.21

Query: Return the recorded inhibition value; entry: COc1cc(C(=O)NCc2ccc3c(c2)cc(C)n3C)cc(OC)c1OC
Response: 1.37

Query: Return the recorded inhibition value; entry: O=c1[nH]c2cccnc2n1-c1ccc([N+](=O)[O-])cc1
Response: 3.76

Query: Return the recorded inhibition value; entry: Cc1ccccc1Nc1scc(-c2ccc(Br)cc2)[n+]1-c1ccccc1C
Response: -1.63

Query: Return the recorded inhibition value; entry: O=c1[nH]n2c(=O)c3c([nH]c2c1N=Nc1ccccc1)CCC3
Response: 5.2

---

Would you kindly list inhibition for each of these molecules?
- assayed_system: Neutrophil cytosol factor 1 (Homo sapiens)
- protocol_summary: blockers of p47phox binding to p22phox – biochemical, uHTS, NADPH oxidase regulatory subunit, primary screen (AID 1274);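 also: 0% = p47phox with labelled peptide and 100% = labelled peptide alone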
- applied_conditions: p47phox/p22phox peptide binding, fluorescence polarization, 2 h; at 24.7 µM; hits give high values
In all, about 220,000 compounds went through this assay and about 1,100 (0.5%) were called active. This is one part of a sample in which actives are shown more often than they occur.
Only the number, expressed in %, is required.

Query: Return the recorded inhibition value; entry: CCOC(=O)C1CCN(c2ncnc3c2oc2ccc(Br)cc23)CC1
Response: 48.6

Query: Return the recorded inhibition value; entry: O=C1CN(C(=O)CN2C(=O)NC3(CCCCC3)C2=O)c2ccccc2N1
Response: -8.11

Query: Return the recorded inhibition value; entry: CC1(C)CC(=O)C=C(N2CCCC2)C1
Response: -17.5

Query: Return the recorded inhibition value; entry: C=CCC1(C#N)C(=S)NC(C)=C(C(=O)OCC)C1c1ccccc1 (stereo not drawn)
Response: -0.89

Query: Return the recorded inhibition value; entry: O=C(COC(=O)c1ccc(F)cc1F)Nc1ncccn1
Response: -18.8

Query: Return the recorded inhibition value; entry: Oc1c(C=Nc2cccc3nsnc23)ccc2ccccc12
Response: -51.3

Query: Return the recorded inhibition value; entry: O=C(Nc1ccc(S(=O)(=O)Nc2ncccn2)cc1)c1cncc(Br)c1
Response: -1.88

Query: Return the recorded inhibition value; entry: O=C1/C(=C/c2coc3ccc(O)cc3c2=O)SC(=S)N1c1ccccc1
Response: -31.6

Query: Return the recorded inhibition value; entry: O=C(NCc1ccco1)C1CCCN1S(=O)(=O)c1ccccc1C(F)(F)F (stereo not drawn)
Response: -2.26

Query: Return the recorded inhibition value; entry: CCOC(=O)C1CCN(c2ncnc3c2c(-c2ccccc2)cn3-c2ccc(C)cc2)CC1
Response: -0.04

Query: Return the recorded inhibition value; entry: Cc1cccc(C)c1NC(=O)C1(N(C(=O)c2ccccn2)c2ccc(O)cc2)CCCCC1
Response: -4.76

Query: Return the recorded inhibition value; entry: CC1Cc2ccccc2N1C(=O)CSc1nc2ccccc2o1 (stereo not drawn)
Response: -13.1

Query: Return the recorded inhibition value; entry: CC(C)N(C(=O)Cn1cc(SCC(=O)N2CCCC2)c2ccccc21)C(C)C
Response: -1.84

Query: Return the recorded inhibition value; entry: CCOC(=O)C1CCN(C(=O)c2oc3ccc(S(=O)(=O)N4CCCCCC4)cc3c2C)CC1
Response: -9.11

Query: Return the recorded inhibition value; entry: CCOc1cc(NC(=S)NCc2ccco2)c(OCC)cc1NC(=O)c1ccco1
Response: 4.63

Query: Return the recorded inhibition value; entry: CC(C)NC(=S)N1CCN(C(c2ccccc2)c2ccccc2)CC1
Response: -3.69

Query: Return the recorded inhibition value; entry: CC1Cc2ccccc2N1C(=O)CSc1nnc(C2CC2)n1C (stereo not drawn)
Response: -12.6

Query: Return the recorded inhibition value; entry: Nc1c(NCCc2ccccc2)c2ccccc2oc1=O
Response: -7.7

Query: Return the recorded inhibition value; entry: CCN(C(=O)COC(=O)/C=C/c1nc2ccccc2s1)C1CCS(=O)(=O)C1 (stereo not drawn)
Response: -4.73

Query: Return the recorded inhibition value; entry: Oc1ccc2ccccc2c1N=Nc1nccs1
Response: 59.9

Query: Return the recorded inhibition value; entry: Cc1cc(=O)[nH]c(SCC(=O)N2c3ccccc3CC2C)n1 (stereo not drawn)
Response: 42.8

Query: Return the recorded inhibition value; entry: CCOc1cc(NC(=S)NCCCOC)c(OCC)cc1NC(=O)c1ccco1
Response: -10.9

Query: Return the recorded inhibition value; entry: O=[N+]([O-])c1ccc(N=Cc2c(O)ccc3ccccc23)cc1
Response: 64.5

---

Would you kindly list inhibition for each of these molecules?
- assayed_system: Neutrophil cytosol factor 1 (Homo sapiens) (UniProt P14598)
- protocol_summary: blockers of p47phox binding to p22phox – biochemical, uHTS, NADPH oxidase regulatory subunit, primary screen (AID 1274);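 also: 0% = p47phox with labelled peptide and 100% = labelled peptide alone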
- applied_conditions: p47phox/p22phox peptide binding, fluorescence polarization, 2 h; at 24.7 µM; hits give high values
Hit rate of the full screen: of about 220,000 compounds, about 1,100 (0.5%) were called active. This excerpt belongs to a sample that is enriched for actives.
Only the number, expressed in %, is required.

Query: Return the recorded inhibition value; entry: CCOC(=O)C1(S(=O)(=O)c2ccccc2)CCN(Cc2ccccc2)CC1
Response: -0.94

Query: Return the recorded inhibition value; entry: CC1=C/C(=N\OS(=O)(=O)c2ccccc2)C=CC1=O
Response: 53.2

Query: Return the recorded inhibition value; entry: CC(=O)Nc1cccc(Oc2cc(C#N)c(C#N)cc2N2CCOCC2)c1
Response: -5.37

Query: Return the recorded inhibition value; entry: COc1cc(C2C(C(=O)Nc3ccc(F)cc3)=C(C)Nc3nc(CCCO)nn32)cc(OC)c1OC (stereo unspecified)
Response: 8.1

Query: Return the recorded inhibition value; entry: CN1/C(=C\C=C2\N=C(c3ccc(F)cc3)OC2=O)C(C)(C)c2ccccc21
Response: 149

Query: Return the recorded inhibition value; entry: CN1/C(=C\C(=O)c2oc3ccccc3c2N)C(C)(C)c2ccccc21
Response: -9.12

Query: Return the recorded inhibition value; entry: CN1/C(=C\C(=O)c2cccnc2Cl)C(C)(C)c2ccccc21
Response: -37.8

Query: Return the recorded inhibition value; entry: COC(C[C@@H](O)[C@H](C)[C@H](O)COCc1ccccc1)OC
Response: -7.85

Query: Return the recorded inhibition value; entry: COCCOC(=O)C1=C(C)Nc2nc(C)nn2C1c1ccccc1 (stereo unspecified)
Response: -2.35

Query: Return the recorded inhibition value; entry: CN1CCN(CCCCOc2ccccc2-c2ccccc2)CC1
Response: -0.29

Query: Return the recorded inhibition value; entry: Cc1ccc(S(=O)(=O)N(c2cccc(C)c2)C2CCS(=O)(=O)C2)cc1 (stereo unspecified)
Response: -5.65

From: PubChem BioAssay AID1274
